# assay-target: UniProtKB P43220
# test-protocol: Human GLP-1 Receptor HEK293 cell cAMP assay, 581 fmol/mg GLP-1R expression density
# Assay type: cell-based
# Set-up: expressed in transfected cells; host or cells: HEK293 clonal cell line
# condition-summary: HEK293 cell line with 581 fmol/mg expression density of GLP-1R; geometric mean; read-out: EC50 nM (SEM, n), intracellular cAMP response, relative EC50
quantity-kind: EC50 (nM)

Use the examples below as a reference point.
- CN1CCC(Oc2cc(C(=O)O)cc3c2nc(Cc2ccc4cc2OCCCc2cc(C#N)ccc2COc2cccc-4n2)n3C[C@@H]2CCO2)C1 (stereo partly drawn): 262
- Cn1cc(-c2ccc3c(c2)CCCOc2cc(ccc2Cc2nc4ccc(C(=O)O)cc4n2C[C@@H]2CCO2)-c2cccc(n2)OC3)ccc1=O: 44

[I] COc1cc(C(=O)O)cc2c1nc(Cc1ccc3cc1COCCc1cc(C#N)ccc1COc1ccnc-3n1)n2C[C@@H]1CCO1
[II] Cn1nccc1-c1ccc2c(c1)CCCOc1cc(ccc1Cc1nc3ccc(C(=O)O)cc3n1C[C@@H]1CCO1)-c1cccc(n1)OC2
[III] O=C(O)c1ccc2nc(Cc3ccc4cc3OCCCc3cc(-c5cccnc5)ccc3COc3cccc-4n3)n(C[C@@H]3CCO3)c2c1
[IV] COCCOc1cc(C(=O)O)cc2c1nc(Cc1cc(F)c3cc1COCCc1cc(C#N)cc(F)c1COc1cccc-3n1)n2C[C@@H]1CCO1
Query block: Let's sort these by EC50, smallest first. Go ahead? The response must list the labels following the requested ordering.
Result block: IV, I, II, III

###

# assay-target: human GLP-1R (Homo sapiens)
# test-protocol: Human GLP-1 Receptor HEK293 cell cAMP assay, 104 fmol/mg GLP-1R expression density
# Format: cell-based
# Set-up: expressed in transfected cells; host or cells: HEK293 clonal cell line
# condition-summary: HEK293 cell line with 104 fmol/mg expression density of GLP-1R; percent of maximal response to GLP-1(7-36)NH2; arithmetic mean; read-out: Emax % (SEM, n), intracellular cAMP response
quantity-kind: Emax (%)

- COCCOc1cc(C(=O)O)cc2c1nc(Cc1cc(F)c3cc1CCOCc1cc(ccc1C#N)COc1cccc-3n1)n2C[C@@H]1CCO1 [Example 48]: 86.8
- COCCOc1cc(C(=O)O)cc2c1nc(Cc1ccc3cc1COCCc1cc(C#N)ccc1COc1cccc-3n1)n2C[C@@H]1CCO1 [Example 64]: 87.3
- Cn1nccc1-c1ccc2c(c1)CCCOc1cc(ccc1Cc1nc3ccc(C(=O)O)cc3n1C[C@@H]1CCO1)-c1cccc(n1)OC2 [Example 31]: 88.8
- Cn1cc(-c2ccc3c(c2)CCCOc2cc(ccc2Cc2nc4ccc(C(=O)O)cc4n2C[C@@H]2CCO2)-c2cccc(n2)OC3)cn1 [Example 40]: 85.9

###

# assay-target: human GLP-1R (Homo sapiens)
# test-protocol: Human GLP-1 Receptor HEK293 cell cAMP assay, 104 fmol/mg GLP-1R expression density
# Type: cell-based
# Parameters: expressed in transfected cells; host or cells: HEK293 clonal cell line
# condition-summary: HEK293 cell line with 104 fmol/mg expression density of GLP-1R; geometric mean; read-out: EC50 nM (SEM, n), intracellular cAMP response, relative EC50
# Experimental: Human GLP-1 Receptor HEK293 Cell cAMP Assay GLP-1 Receptor functional activity is determined using cAMP formation in an HEK293 clonal cell line expressing human GLP-1R (NCBI accession number NP_002053) at an expression density of 581±94 (n=6) and 104±12 (n=5) fmol/mg protein (determined using [^125I]GLP-1(7-36)NH2 homologous competition binding analysis). […]
quantity-kind: EC50 (nM)

- COCCOc1cc(C(=O)O)cc2c1nc(Cc1ccc3cc1COCCc1cc(C#N)ccc1COc1cccc-3n1)n2C[C@@H]1CCO1: 5.53
- Nc1cc(-c2ccc3c(c2)CCCOc2cc(ccc2Cc2nc4ccc(C(=O)O)cc4n2C[C@@H]2CCO2)-c2cccc(n2)OC3)ccn1: 248

[I] CNC(=O)c1ccc(-c2ccc3c(c2)CCCOc2cc(ccc2Cc2nc4ccc(C(=O)O)cc4n2C[C@@H]2CCO2)-c2cccc(n2)OC3)cc1
[II] O=C(O)c1ccc2nc(Cc3ccc4cc3OCCCc3cc(-n5cnc(F)c5)ccc3COc3cccc-4n3)n(C[C@@H]3CCO3)c2c1
[III] N#Cc1ccc2cc1CCCOc1cc(c(F)cc1Cc1nc3ccc(C(=O)O)cc3n1C[C@@H]1CCO1)-c1cccc(n1)OC2
[IV] O=C(O)c1ccc2nc(Cc3ccc4cc3OCCCc3cc(-c5cnn(C6CC6)c5)ccc3COc3cccc-4n3)n(C[C@@H]3CCO3)c2c1
[V] COCCOc1cc(C(=O)O)cc2c1nc(Cc1cc(F)c3cc1COCCc1cc(C#N)cc(F)c1COc1cccc-3n1)n2C[C@@H]1CCO1
Query block: Order the items by recorded EC50; the first position goes to the largest value. The response must list the labels following the requested ordering.
Result block: I, IV, III, II, V

###

# assay-target: human GLP-1R (Homo sapiens, UniProt P43220)
# Sequence (P43220 24-463): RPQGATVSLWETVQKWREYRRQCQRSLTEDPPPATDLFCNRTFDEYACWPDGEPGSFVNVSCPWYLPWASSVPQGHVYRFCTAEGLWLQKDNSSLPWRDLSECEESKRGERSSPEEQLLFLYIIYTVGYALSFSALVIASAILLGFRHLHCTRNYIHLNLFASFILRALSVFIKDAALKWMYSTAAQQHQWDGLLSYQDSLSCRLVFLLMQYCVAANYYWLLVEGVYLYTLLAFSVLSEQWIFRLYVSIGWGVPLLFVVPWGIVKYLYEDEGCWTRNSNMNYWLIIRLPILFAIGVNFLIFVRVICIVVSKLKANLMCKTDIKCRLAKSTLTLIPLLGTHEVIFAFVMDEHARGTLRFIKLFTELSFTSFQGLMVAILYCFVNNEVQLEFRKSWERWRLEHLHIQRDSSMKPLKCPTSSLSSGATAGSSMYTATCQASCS
# test-protocol: Human GLP-1 Receptor HEK293 cell cAMP assay, 581 fmol/mg GLP-1R expression density
# Format: cell-based
# Set-up: expressed in transfected cells; host or cells: HEK293 clonal cell line
# condition-summary: HEK293 cell line with 581 fmol/mg expression density of GLP-1R; percent of maximal response to GLP-1(7-36)NH2; arithmetic mean; read-out: Emax % (SEM, n), intracellular cAMP response
quantity-kind: Emax (%)

- CN1CCC(Oc2cc(C(=O)O)cc3c2nc(Cc2ccc4cc2OCCCc2cc(C#N)ccc2COc2cccc-4n2)n3C[C@@H]2CCO2)C1 (stereo partly drawn) [Example 59]: 90.9

[A] O=C(O)c1ccc2nc(Cc3ccc4cc3OCCCc3cc(-n5cnc(F)c5)ccc3COc3cccc-4n3)n(C[C@@H]3CCO3)c2c1 [Example 66]
[B] O=C(O)c1ccc2nc(Cc3ccc4cc3OCCCc3cc(-n5ccc(=O)c(F)c5)ccc3COc3cccc-4n3)n(C[C@@H]3CCO3)c2c1 [Example 71]
Query block: Sort A and B by Emax descending and give the first. To answer, give the label that identifies your chosen option.
Result block: A

###

# assay-target: human GLP-1R (Homo sapiens)
# test-protocol: Human GLP-1 Receptor HEK293 cell cAMP assay, 104 fmol/mg GLP-1R expression density
# Format: cell-based
# Set-up: expressed in transfected cells; host or cells: HEK293 clonal cell line
# condition-summary: HEK293 cell line with 104 fmol/mg expression density of GLP-1R; geometric mean; read-out: EC50 nM (SEM, n), intracellular cAMP response, relative EC50
quantity-kind: EC50 (nM)

[A] CN(C)C(=O)c1ccc(-c2ccc3c(c2)CCCOc2cc(ccc2Cc2nc4ccc(C(=O)O)cc4n2C[C@@H]2CCO2)-c2cccc(n2)OC3)cc1
[B] COCCOc1cc(C(=O)O)cc2c1nc(Cc1ccc3cc1COCCc1cc(C(F)(F)F)ncc1COc1cccc-3n1)n2C[C@@H]1CCO1
Query block: From the items above, decide which of A and B has the lower EC50 reading. To answer, give the label that identifies your chosen option.
Result block: B
(B: 153 nM, A: 724 nM)

###

# assay-target: human GLP-1R (Homo sapiens, UniProt P43220)
# test-protocol: Human GLP-1 Receptor HEK293 cell cAMP assay, 104 fmol/mg GLP-1R expression density
# Format: cell-based
# Set-up: expressed in transfected cells; host or cells: HEK293 clonal cell line
# condition-summary: HEK293 cell line with 104 fmol/mg expression density of GLP-1R; geometric mean; read-out: EC50 nM (SEM, n), intracellular cAMP response, relative EC50
# Procedure: Human GLP-1 Receptor HEK293 Cell cAMP Assay GLP-1 Receptor functional activity is determined using cAMP formation in an HEK293 clonal cell line expressing human GLP-1R (NCBI accession number NP_002053) at an expression density of 581±94 (n=6) and 104±12 (n=5) fmol/mg protein (determined using [^125I]GLP-1(7-36)NH2 homologous competition binding analysis). […]
quantity-kind: EC50 (nM)

• O=C(O)c1ccc2nc(Cc3ccc4cc3OCCCc3cc(-n5ccnc5)ccc3COc3cccc-4n3)n(C[C@@H]3CCO3)c2c1 = 68.5

[1] COCCOc1cc(C(=O)O)cc2c1nc(Cc1cc(F)c3cc1COCc1cc(C#N)ccc1COc1cccc-3n1)n2C[C@@H]1CCO1
[2] O=C(O)c1ccc2nc(Cc3ccc4cc3OCCCc3cc(-c5ccc(CO)cc5)ccc3COc3cccc-4n3)n(C[C@@H]3CCO3)c2c1
Query block: From the items above, decide which of 1 and 2 has the lower EC50 reading. To answer, give the label that identifies your chosen option.
Result block: 1
